molecular target: CA IV (Homo sapiens, UniProt P22748); experiment: Fluorescence-based thermal shift assay (FTSA)
Sequence (P22748 19-312): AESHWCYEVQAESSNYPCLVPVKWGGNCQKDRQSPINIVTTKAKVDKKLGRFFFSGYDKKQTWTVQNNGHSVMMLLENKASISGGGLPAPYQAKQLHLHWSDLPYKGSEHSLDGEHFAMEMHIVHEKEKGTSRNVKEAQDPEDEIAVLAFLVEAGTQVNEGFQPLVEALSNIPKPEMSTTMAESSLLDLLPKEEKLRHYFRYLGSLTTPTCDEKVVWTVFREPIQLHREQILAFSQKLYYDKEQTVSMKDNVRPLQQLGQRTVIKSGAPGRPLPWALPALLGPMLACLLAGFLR
This listing pairs compounds with measured log10 of Kd.
measurement_kind: log10 of Kd (log10 of the value in nM)

# compound, measured_result
data = [
    ("CN1C(CSCC(F)(F)F)Nc2cc(Cl)c(S(N)(=O)=O)cc2S1(=O)=O (stereo not drawn) [Compound 7, polythiazide]", 2.52),
    ("NS(=O)(=O)c1ccccc1Cl [Compound 1, 2-chloro-benzenesulfonamide]", 3.08),
    ("NS(=O)(=O)c1cc2c(cc1Cl)N=CNS2(=O)=O [Compound 3, chlorothiazide]", 2.49),
    ("NS(=O)(=O)c1cc(C2(O)NC(=O)c3ccccc32)ccc1Cl (stereo not drawn)", 1.20),
    ("NS(=O)(=O)c1cc2c(cc1Cl)N=C(CSCc1ccccc1)NS2(=O)=O [Compound 8, benzthiazide]", 1.63),
    ("NS(=O)(=O)c1cc2c(cc1Cl)NCNS2(=O)=O [Compound 4, hydrochlorothiazide]", 3.20),
]

* * *

biological target: CA VB (Homo sapiens, UniProt Q9Y2D0)
Sequence (Q9Y2D0 34-317): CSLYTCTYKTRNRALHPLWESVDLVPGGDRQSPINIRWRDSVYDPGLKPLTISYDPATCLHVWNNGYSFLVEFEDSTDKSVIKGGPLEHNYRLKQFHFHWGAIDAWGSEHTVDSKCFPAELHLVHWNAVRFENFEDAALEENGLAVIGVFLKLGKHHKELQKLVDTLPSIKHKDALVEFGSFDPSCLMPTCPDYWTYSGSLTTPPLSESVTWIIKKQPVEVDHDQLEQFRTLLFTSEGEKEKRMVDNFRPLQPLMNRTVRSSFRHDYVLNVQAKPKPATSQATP
This listing pairs compounds with measured Kd.
measurement_kind: Kd (nM)

# compound, measured_result
records = [
    ("NS(=O)(=O)c1cc2c(cc1C(F)(F)F)NCNS2(=O)=O [Compound 10, hydroflumethiazide]", 910),
    ("Cc1ccccc1N1C(=O)c2cc(S(N)(=O)=O)c(Cl)cc2NC1C (stereo not drawn)", 1400),
    ("C[C@@H]1CCC[C@H](C)N1NC(=O)c1ccc(Cl)c(S(N)(=O)=O)c1 [Compound 13, clopamide]", 660),
]

* * *

Data export: Kd values recorded with CA IX (Homo sapiens, UniProt Q16790).

# molecule, study_system, unit_annotation, Kd
rows = [
    ("C=CCSCC1Nc2cc(Cl)c(S(N)(=O)=O)cc2S(=O)(=O)N1 (centres unmarked) [Compound 9, althiazide]", "CA IX (Homo sapiens, UniProt Q16790)", "nM", 120),
    ("CN1C(CSCC(F)(F)F)Nc2cc(Cl)c(S(N)(=O)=O)cc2S1(=O)=O (centres unmarked) [Compound 7, polythiazide]", "CA IX (Homo sapiens, UniProt Q16790)", "nM", 100),
    ("NS(=O)(=O)c1cc2c(cc1Cl)NC(C1CC3C=CC1C3)NS2(=O)=O (centres unmarked) [Compound 6, cyclothiazide]", "CA IX (Homo sapiens, UniProt Q16790)", "nM", 150),
    ("CC1Cc2ccccc2N1NC(=O)c1ccc(Cl)c(S(N)(=O)=O)c1 (centres unmarked) [Compound 12, Indapamide]", "CA IX (Homo sapiens, UniProt Q16790)", "nM", 140),
    ("NS(=O)(=O)c1cc2c(cc1Cl)N=CNS2(=O)=O [Compound 3, chlorothiazide]", "CA IX (Homo sapiens, UniProt Q16790)", "nM", 130),
]

* * *

Data export: pKd values recorded with CA XIV (Homo sapiens, UniProt Q9ULX7).
Sequence (Q9ULX7 16-337): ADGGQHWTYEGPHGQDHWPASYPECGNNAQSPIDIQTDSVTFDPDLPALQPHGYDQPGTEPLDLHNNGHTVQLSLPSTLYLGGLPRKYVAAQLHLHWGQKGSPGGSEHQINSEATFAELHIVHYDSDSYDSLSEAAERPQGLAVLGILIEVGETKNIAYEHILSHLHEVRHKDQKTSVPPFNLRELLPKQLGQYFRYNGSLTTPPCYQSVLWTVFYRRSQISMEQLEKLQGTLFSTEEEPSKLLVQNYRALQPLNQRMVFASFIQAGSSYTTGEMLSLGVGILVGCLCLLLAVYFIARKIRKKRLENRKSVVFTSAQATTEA
pKd: −log10 of the molar value.
measurement_kind: pKd

# compound, study_system, measured_result
data = [
    ("CC1Cc2ccccc2N1NC(=O)c1ccc(Cl)c(S(N)(=O)=O)c1 (stereo not shown) [Compound 12, Indapamide]", "CA XIV (Homo sapiens, UniProt Q9ULX7)", 7.06),
    ("NS(=O)(=O)c1cc2c(cc1Cl)N=C(CSCc1ccccc1)NS2(=O)=O [Compound 8, benzthiazide]", "CA XIV (Homo sapiens, UniProt Q9ULX7)", 7.44),
    ("NS(=O)(=O)c1cc2c(cc1Cl)NC(C1CC3C=CC1C3)NS2(=O)=O (stereo not shown) [Compound 6, cyclothiazide]", "CA XIV (Homo sapiens, UniProt Q9ULX7)", 6.44),
    ("Cc1ccccc1N1C(=O)c2cc(S(N)(=O)=O)c(Cl)cc2NC1C (stereo not shown) [Compound 20, metolazone]", "CA XIV (Homo sapiens, UniProt Q9ULX7)", 5.89),
    ("NS(=O)(=O)c1cc2c(cc1C(F)(F)F)NC(Cc1ccccc1)NS2(=O)=O (stereo not shown) [Compound 11, bendroflumethiazide]", "CA XIV (Homo sapiens, UniProt Q9ULX7)", 6.89),
    ("NS(=O)(=O)c1ccccc1Cl [Compound 1, 2-chloro-benzenesulfonamide]", "CA XIV (Homo sapiens, UniProt Q9ULX7)", 6.37),
    ("CN1C(CSCC(F)(F)F)Nc2cc(Cl)c(S(N)(=O)=O)cc2S1(=O)=O (stereo not shown) [Compound 7, polythiazide]", "CA XIV (Homo sapiens, UniProt Q9ULX7)", 6.64),
]

* * *

Data export: pKd values recorded with CA VA (Homo sapiens, UniProt P35218).
Sequence (P35218 39-305): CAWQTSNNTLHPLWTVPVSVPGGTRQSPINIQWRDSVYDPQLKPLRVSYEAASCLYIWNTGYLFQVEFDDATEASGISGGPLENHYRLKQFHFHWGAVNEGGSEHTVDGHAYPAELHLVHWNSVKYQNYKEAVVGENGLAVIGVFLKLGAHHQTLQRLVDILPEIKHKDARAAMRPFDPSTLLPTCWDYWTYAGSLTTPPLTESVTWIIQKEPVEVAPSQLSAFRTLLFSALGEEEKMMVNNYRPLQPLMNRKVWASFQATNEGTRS
pKd: −log10 of the molar value.
measurement_kind: pKd

# molecule, measurement_kind, readout_qualifier, measured_result
rows = [
    ("NS(=O)(=O)c1cc2c(cc1Cl)N=CNS2(=O)=O [Compound 3, chlorothiazide]", "pKd", "=", 6.08),
    ("NS(=O)(=O)c1cc2c(cc1Cl)NC(C1CC3C=CC1C3)NS2(=O)=O (centres unmarked) [Compound 6, cyclothiazide]", "pKd", "=", 5.96),
    ("Cc1cccc(C)c1NC(=O)c1cc(S(N)(=O)=O)c(Cl)cc1O [Compound 14, xipamide]", "pKd", "<", 3.70),
    ("NS(=O)(=O)c1cc2c(cc1Cl)NC(c1ccccc1)NC2=O (centres unmarked) [Compound 19, fenquizone]", "pKd", "=", 4.96),
    ("NS(=O)(=O)c1cc(C2(O)NC(=O)c3ccccc32)ccc1Cl (centres unmarked) [Compound 16, Chlorthalidone]", "pKd", "=", 5.32),
]

The measurements presented in this section are drawn from paper PMC8224972.
